Just for reference, ChEMBL document CHEMBL1201862 is where these values come from.

# System: SW-620
# test: NCI tumour cell line growth inhibition, 48 h
Calls of active or inactive are those of the source. Cut-off read from the data, not from the text of the source: active = GI50 up to about 1.1 µM and inactive = higher. Peptide text beside a SMILES is read from it. * marks the point of attachment. Cbz = O=C(OCc1ccccc1)*; NHNH2 = NN*

{"compound": "COC(=O)CC(c1cn(S(=O)(=O)c2ccc(C)cc2)c2ccccc12)C1C[C@@H](C(=O)OC)N(C(=O)OC(C)(C)C)C1=O (stereo partly drawn)", "target_system": "SW-620", "GI50": "12.5 µM (inactive)"}
{"compound": "CSc1ncc2c(n1)-c1ccccc1OC2N1CCCCC1 (stereo not drawn)", "target_system": "SW-620", "GI50": "40.5 µM (inactive)"}
{"compound": "O=C(O)c1ccc(Nc2nc3cc(C(F)(F)F)ccc3nc2C(=O)O)cc1", "target_system": "SW-620", "GI50": "> 100 µM (inactive)"}
{"compound": "O=C(O)CC(NC(=O)Nc1ccc([N+](=O)[O-])cc1)C(=O)Nc1ccc([N+](=O)[O-])cc1 (stereo not drawn)", "target_system": "SW-620", "GI50": "> 100 µM (inactive)"}
{"compound": "CC(C)=CCCC(C)CCOS(=O)C(F)(F)F (stereo not drawn)", "target_system": "SW-620", "GI50": "3.29 µM (inactive)"}
{"compound": "CC1=C/C(=N/N2C(=O)/C(=C/c3ccc(Cl)cc3)N=C2c2ccccc2)CC(C)(C)C1", "target_system": "SW-620", "GI50": "76.2 µM (inactive)"}
{"compound": "COC(=O)/C=C/COCC1C2CCC(=O)C21 (stereo not drawn)", "target_system": "SW-620", "GI50": "> 100 µM (inactive)"}
{"compound": "CCOC(=O)C(NC(=O)c1ccc(/N=N/N(C)C)cc1)C(C)C (stereo not drawn)", "target_system": "SW-620", "GI50": "> 100 µM (inactive)"}
{"compound": "CN1CN(c2ccccc2)C2(CCN(C3Nc4ccccc4O3)CC2)C1=O (stereo not drawn)", "target_system": "SW-620", "GI50": "33.7 µM (inactive)"}
{"compound": "CN(C)c1ccc(C=c2c3cc(O)ccc3n3c2cc(-c2ccccc2)[n+]3C)cc1", "target_system": "SW-620", "GI50": "1.22 µM (inactive)"}
{"compound": "CO/N=C(/C(=O)OC)c1ccccc1COc1cccc(C(F)(F)F)c1", "target_system": "SW-620", "GI50": "42.5 µM (inactive)"}
{"compound": "Cc1c(C(=O)/C=C/c2ccccc2[N+](=O)[O-])[n+]([O-])c2ccccc2[n+]1[O-]", "target_system": "SW-620", "GI50": "5.13 µM (inactive)"}
{"compound": "CC1OC(OC2C(OC(=O)[C@]34CCC(C)(C)C[C@H]3C3=CC[C@@H]5[C@@]6(C)CC[C@H](OC7OC(CO)C(O)C(O)C7OC7OC(CO)C(O)C(O)C7O)C(C)(C)[C@@H]6CC[C@@]5(C)[C@]3(C)CC4)OCC(O)C2O)C(O)C(O)C1OC1OCC(O)C(O)C1O (stereo partly drawn)", "target_system": "SW-620", "GI50": "16.1 µM (inactive)"}
{"compound": "O=C1C=CC(=O)c2c(NCC3CC3)ccc(NCC3CC3)c21", "target_system": "SW-620", "GI50": "34.5 µM (inactive)"}
{"compound": "Cc1cn(CC2=NCC(C)N2)c(=O)[nH]c1=O (stereo not drawn)", "target_system": "SW-620", "GI50": "> 100 µM (inactive)"}
{"compound": "O=C1NC(Nc2ccccc2)=NC(C(F)(F)F)(C(F)(F)F)N1", "target_system": "SW-620", "GI50": "71.8 µM (inactive)"}
{"compound": "COC(=O)CC(NC(=O)OCc1ccccc1)C(=O)NC(CC(=O)OC)C(=O)NC(CC(=O)OC)C(=O)NC(CC(=O)OC)C(=O)NC(CC(=O)OC)C(=O)NC(CC(=O)OC)C(=O)NN (stereo not drawn) (Cbz-D(OMe)D(OMe)D(OMe)D(OMe)D(OMe)D(OMe)-NHNH2; configuration not given here)", "target_system": "SW-620", "GI50": "> 100 µM (inactive)"}
{"compound": "O=[N+]([O-])c1ccc(-c2nn3c(C45CC6CC(CC(C6)C4)C5)nnc3s2)c(Cl)c1", "target_system": "SW-620", "GI50": "> 100 µM (inactive)"}
